subject-of-test: Human MAGL (hMAGL) (Homo sapiens, UniProt Q99685)
Construct: hexahistidine; made in house; host or cells: E. coli
Sequence (Q99685 whole entry): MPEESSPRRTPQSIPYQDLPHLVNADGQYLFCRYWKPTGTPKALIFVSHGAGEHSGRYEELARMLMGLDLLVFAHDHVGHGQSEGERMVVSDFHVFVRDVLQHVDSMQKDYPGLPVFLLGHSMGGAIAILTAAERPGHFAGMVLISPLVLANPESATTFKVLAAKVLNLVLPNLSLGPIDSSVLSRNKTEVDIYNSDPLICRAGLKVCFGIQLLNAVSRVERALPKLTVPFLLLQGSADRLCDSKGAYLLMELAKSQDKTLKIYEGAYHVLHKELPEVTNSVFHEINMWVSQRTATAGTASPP
test-protocol: Fluorescent assay protocol for hMAGL (AHMMCE substrate)
Format: biochemical
applied-conditions: recombinant human MAGL, AHMMCE substrate, 15 min preincubation; read-out: IC50 hMAGL
pIC50: −log10 of the molar value.
Below, each entry is listed with its recorded pIC50.

Cc1ccc(C#N)cc1OC(=O)N1CCC(S(=O)(=O)c2ccc(Br)cc2)CC1 ... < 6.00
O=C(N1CC(OCc2ccc(Br)cc2)C1)n1cnc(-c2ccccc2)c1 ... < 6.00
O=C(N1CC(N2CCC(c3ccccc3)CC2)C1)n1cnc2ccccc21 ... < 6.00
O=C(N1C[C@@H]2C[C@H]1CN2c1ccccn1)n1cnc(-c2ccccc2)c1 ... < 6.00

Now consider a different compound.
Please give measured pIC50 of the following entry: `N#Cc1ccnc(OC(=O)N2CCN(C3c4ccccc4-c4ccccc43)CC2)c1`
7.00 to 8.00
